Please go through the items and note down their Control of weed species SETFA (100=total damage to plant; 0=no damage to plant).
# Tested on: Setaria faberi (SETFA)
# test.details: Post-emergence efficacy, glasshouse, evaluated after 13 days
# Format: in vivo
# study.conditions: post-emergence application, 500 g/Ha, evaluated after 13 days
API note: the answer field is a bare number with no unit suffix.

Ask: Provide Control of weed species SETFA (100=total damage to plant; 0=no damage to plant) value for the following compound: CCNC(=O)c1cc[n+](CCCOS(=O)(=O)[O-])nc1 [Compound A83]
Reply: 60

Ask: Name the recorded Control of weed species SETFA (100=total damage to plant; 0=no damage to plant) of the compound listed here: CN(NC(=O)c1cc[n+](CCC(=O)O)nc1)C(=O)OC(C)(C)C.O=C([O-])C(F)(F)F [Compound A72]
Reply: 20

Ask: Given CNC(=O)c1cc[n+](CCS(=O)(=O)[O-])nc1C [Compound A56] , respond with its Control of weed species SETFA (100=total damage to plant; 0=no damage to plant).
Reply: 60

Ask: Give the reported value of Control of weed species SETFA (100=total damage to plant; 0=no damage to plant) for this record: CNC(=O)c1cc[n+](CC[C@H](N)C(=O)O)nc1.O=C(O)C(F)(F)F.O=C([O-])C(F)(F)F [Compound A12]
Reply: 60

###

# Tested on: Echinochloa crus-galli (ECHCG)
# test.details: Post-emergence efficacy, glasshouse, evaluated after 13 days
# Type: in vivo
# study.conditions: Echinochloa crus-galli, 312 h; post-emergence application, 500 g/Ha, evaluated after 13 days; read-out: Control of weed species ECHCG (100=total damage to plant; 0=no damage to plant)
measured.endpoint: pest or weed control at 500 g/ha

Ask: Specify pest or weed control at 500 g/ha for CC(=O)CNC(=O)c1cc[n+](CCC(=O)O)nc1 , system Echinochloa crus-galli (ECHCG).
Reply: 60%

Ask: Recall the reported pest or weed control at 500 g/ha of CC(=O)NNC(=O)c1cc[n+](CCC(=O)O)nc1 on Echinochloa crus-galli (ECHCG) and write it down.
Reply: 40%

Ask: Please report pest or weed control at 500 g/ha with Echinochloa crus-galli (ECHCG) for item O=C(Nc1ccccc1)c1cc[n+](CCS(=O)(=O)[O-])nc1 .
Reply: 20%

Ask: Give the observed pest or weed control at 500 g/ha of O=C(O)CC[n+]1ccc(C(=O)NCCO)cn1 for Echinochloa crus-galli (ECHCG).
Reply: 90%

Ask: Look up Echinochloa crus-galli (ECHCG) data: pest or weed control at 500 g/ha of CC(C)NC(=O)c1cc[n+](CCC(=O)[O-])nc1 , then report it.
Reply: 50%

###

# System: Setaria faberi (SETFA)
# test.details: Post-emergence efficacy, glasshouse, evaluated after 13 days
# Assay type: in vivo
# study.conditions: Setaria faberi, 312 h; post-emergence application, 500 g/Ha, evaluated after 13 days; read-out: Control of weed species SETFA (100=total damage to plant; 0=no damage to plant)
measured.endpoint: pest or weed control at 500 g/ha (%)
Report the figure in % without appending any unit label.

Ask: Fetch value of pest or weed control at 500 g/ha on Setaria faberi (SETFA) for CC1(C)CC1NC(=O)c1cc[n+](CCC(=O)O)nc1 (stereo not shown) [Compound A137] .
Reply: 70

Ask: Param request: pest or weed control at 500 g/ha | system Setaria faberi (SETFA) | item C=CCNC(=O)c1cc[n+](CCC(=O)O)nc1 [Compound A19]
Reply: 80

Ask: Write down measured pest or weed control at 500 g/ha (Setaria faberi (SETFA)) for this molecule. CCNC(=O)c1cc[n+](CCNS(=O)(=O)C(F)(F)F)nc1 [Compound A73]
Reply: 60

Ask: Output reported pest or weed control at 500 g/ha of the molecule CCNC(=O)c1cc[n+](CC(=O)OC)nc1 [Compound A89] on Setaria faberi (SETFA).
Reply: 0

Ask: Find the measured pest or weed control at 500 g/ha of CCNC(=O)c1cc[n+](CCP(=O)(O)O)nc1 [Compound A119] with Setaria faberi (SETFA) as test system.
Reply: 50

Ask: Give pest or weed control at 500 g/ha; test system Setaria faberi (SETFA); molecule CC(CS(C)(=O)=O)NC(=O)c1cc[n+](CCC(=O)O)nc1 (stereo not shown) [Compound A122]
Reply: 60

Ask: # return pest or weed control at 500 g/ha of COC(=O)CC[n+]1ccc(C(=O)N(C)C)cn1 [Compound A2] (system: Setaria faberi (SETFA))
Reply: 30

Ask: For Setaria faberi (SETFA), give the measured pest or weed control at 500 g/ha of the entry CCNC(=O)c1cc[n+](C(C)(C)CC(=O)O)nc1 [Compound A71]
Reply: 30

Ask: With Setaria faberi (SETFA) as the test system, provide measured pest or weed control at 500 g/ha for this molecule: O=C(Nc1ccccc1)c1cc[n+](CCS(=O)(=O)[O-])nc1 [Compound A7]
Reply: 30

Ask: Send back Setaria faberi (SETFA) pest or weed control at 500 g/ha of O=C(O)CC[n+]1ccc(C(=O)N2CCSCC2)cn1 [Compound A112] only.
Reply: 90
